target: T1, human c-Met (Sino Biological) (human, UniProt P08581 25-932, limits assumed); assay: SPR (Biacore T200), IgG captured on Protein A CM5 chip, c-Met 0.15-2 nM as analyte
T1 construct: Analyte in the Biacore assay; also called antigen (c-Met); printed as "human c-Met antibody (Sino Biological, Beijing, China)"
T1 sequence (P08581 25-932 limits assumed): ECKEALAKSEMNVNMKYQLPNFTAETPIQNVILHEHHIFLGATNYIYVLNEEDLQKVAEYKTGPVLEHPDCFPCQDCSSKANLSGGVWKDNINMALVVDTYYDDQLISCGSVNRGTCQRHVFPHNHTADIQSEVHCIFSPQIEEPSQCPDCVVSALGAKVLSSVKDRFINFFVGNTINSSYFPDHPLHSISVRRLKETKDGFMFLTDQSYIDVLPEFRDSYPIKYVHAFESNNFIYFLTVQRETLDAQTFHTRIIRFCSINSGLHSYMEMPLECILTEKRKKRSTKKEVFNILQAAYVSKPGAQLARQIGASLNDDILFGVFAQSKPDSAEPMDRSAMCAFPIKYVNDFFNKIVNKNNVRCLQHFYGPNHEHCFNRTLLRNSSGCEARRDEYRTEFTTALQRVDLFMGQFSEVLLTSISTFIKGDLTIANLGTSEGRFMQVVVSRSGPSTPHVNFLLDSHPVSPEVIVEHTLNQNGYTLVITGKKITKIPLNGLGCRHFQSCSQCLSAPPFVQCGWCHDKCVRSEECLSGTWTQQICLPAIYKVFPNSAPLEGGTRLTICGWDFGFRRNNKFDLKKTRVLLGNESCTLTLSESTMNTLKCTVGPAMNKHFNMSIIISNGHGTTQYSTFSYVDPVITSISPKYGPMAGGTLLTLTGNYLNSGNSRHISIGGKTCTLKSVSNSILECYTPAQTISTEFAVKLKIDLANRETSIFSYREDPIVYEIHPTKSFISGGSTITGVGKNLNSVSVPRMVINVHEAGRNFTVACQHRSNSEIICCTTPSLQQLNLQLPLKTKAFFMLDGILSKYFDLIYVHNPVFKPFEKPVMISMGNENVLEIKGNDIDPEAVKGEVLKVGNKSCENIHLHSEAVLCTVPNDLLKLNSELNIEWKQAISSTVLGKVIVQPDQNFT
Measurement type: Kd
Value and unit, in that order.

Known Kd results, listed for orientation:
- VH3/Vk2 (antibody, IgG1, V domains shown, Full IgG1/kappa expressed in HEK 293 EBNA cells) VH: QVQLVQSGAEVKKPGSSVKVSCQGSGYSFPTHWITWVRQAPGQGLEWMGTIDPTDSYNFYGPSFQGRVTITADSSTSTAYLQWSSLKASDTAMYYCARDGNYYDSRGYYYDTFDMWGQGTLVTVSS VL: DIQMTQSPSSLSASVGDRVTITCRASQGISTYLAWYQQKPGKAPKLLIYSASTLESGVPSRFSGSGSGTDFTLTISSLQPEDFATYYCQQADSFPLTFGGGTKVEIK: 0.477 nM
- VH5/Vk5 (antibody, IgG1, V domains shown, Full IgG1/kappa expressed in HEK 293 EBNA cells) VH: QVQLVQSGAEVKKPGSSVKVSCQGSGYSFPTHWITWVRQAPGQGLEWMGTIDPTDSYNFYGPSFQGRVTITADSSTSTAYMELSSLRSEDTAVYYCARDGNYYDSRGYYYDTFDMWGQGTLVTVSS VL: EIVLTQSPGTLSLSPGERATLSCRASQGISTYLAWYQQKPGQAPRLLIYSASTLESGIPDRFSGSGSGTDFTLTISRLEPEDFATYYCQQADSFPLTFGGGTKVEIK: 0.506 nM

Consider the record given below.
Per the record, VH2/Vk5 (antibody, IgG1, V domains shown, Full IgG1/kappa expressed in HEK 293 EBNA cells) VH: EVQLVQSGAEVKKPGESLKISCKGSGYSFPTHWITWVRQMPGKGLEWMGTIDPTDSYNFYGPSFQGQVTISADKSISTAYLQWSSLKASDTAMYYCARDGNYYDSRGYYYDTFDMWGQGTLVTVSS VL: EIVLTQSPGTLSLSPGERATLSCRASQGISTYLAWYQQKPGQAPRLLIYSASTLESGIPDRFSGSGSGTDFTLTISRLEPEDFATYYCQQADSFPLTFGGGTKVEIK has Kd of 0.685 nM
